# TARGET OR SYSTEM: T1, ZFP SBS#312 (synthetic)
# T1 chain: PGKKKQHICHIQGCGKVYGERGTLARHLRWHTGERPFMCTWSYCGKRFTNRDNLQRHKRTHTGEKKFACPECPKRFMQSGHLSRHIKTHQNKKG
# TEST NAME: EMSA
# CONDITIONS USED: tags: MBP fusion
MEASURED QUANTITY: Kd (nM)

GGAGATGCC (dsDNA) DNA 1: GGAGATGCC DNA 2: GGCATCTCC :: 2000
